Test system: human thrombi
measurement-description: Ex vivo blood flow model: binding to human thrombi, incl. competition with cold compound
measurement-context: 3 minutes post-injection of 18F-labeled compound; ± SEM; without cold compound
Reported Accumulation Thrombus is given for each of the following compounds.

Examples with answers:
>  <compound-structure-string>
O=C(O)C[C@H](NC(=O)[C@@H]1CCCN(C(=O)CCC2CCNCC2)C1)c1cccc(OCC[18F])c1

>  <measured>
41 ± 3 (n = 5) 10^3 cpm/mg

$$$$
>  <compound-structure-string>
O=C(O)C[C@H](NC(=O)[C@@H]1CCCN(C(=O)CCC2CCNCC2)C1)c1ccc(OCC[18F])cc1

>  <measured>
86 ± 9 (n = 6) 10^3 cpm/mg

$$$$

Let us move to another entry and its Accumulation Thrombus.
## Task Item: O=C(O)C[C@H](NC(=O)[C@@H]1CCCN(C(=O)CCC2CCNCC2)C1)c1cncc(CCc2cccc(OCC[18F])c2)c1 Test system: human thrombi Read-out: Accumulation Thrombus Value: ?
## Result 258 ± 59 (n = 4) 10^3 cpm/mg

###

Reported pIC50 is given for each of the following compounds.
assay-target: human GPIIb/IIIa receptor (Homo sapiens (Human), UniProt P05106+P08514)
Sequence (P08514 32-887): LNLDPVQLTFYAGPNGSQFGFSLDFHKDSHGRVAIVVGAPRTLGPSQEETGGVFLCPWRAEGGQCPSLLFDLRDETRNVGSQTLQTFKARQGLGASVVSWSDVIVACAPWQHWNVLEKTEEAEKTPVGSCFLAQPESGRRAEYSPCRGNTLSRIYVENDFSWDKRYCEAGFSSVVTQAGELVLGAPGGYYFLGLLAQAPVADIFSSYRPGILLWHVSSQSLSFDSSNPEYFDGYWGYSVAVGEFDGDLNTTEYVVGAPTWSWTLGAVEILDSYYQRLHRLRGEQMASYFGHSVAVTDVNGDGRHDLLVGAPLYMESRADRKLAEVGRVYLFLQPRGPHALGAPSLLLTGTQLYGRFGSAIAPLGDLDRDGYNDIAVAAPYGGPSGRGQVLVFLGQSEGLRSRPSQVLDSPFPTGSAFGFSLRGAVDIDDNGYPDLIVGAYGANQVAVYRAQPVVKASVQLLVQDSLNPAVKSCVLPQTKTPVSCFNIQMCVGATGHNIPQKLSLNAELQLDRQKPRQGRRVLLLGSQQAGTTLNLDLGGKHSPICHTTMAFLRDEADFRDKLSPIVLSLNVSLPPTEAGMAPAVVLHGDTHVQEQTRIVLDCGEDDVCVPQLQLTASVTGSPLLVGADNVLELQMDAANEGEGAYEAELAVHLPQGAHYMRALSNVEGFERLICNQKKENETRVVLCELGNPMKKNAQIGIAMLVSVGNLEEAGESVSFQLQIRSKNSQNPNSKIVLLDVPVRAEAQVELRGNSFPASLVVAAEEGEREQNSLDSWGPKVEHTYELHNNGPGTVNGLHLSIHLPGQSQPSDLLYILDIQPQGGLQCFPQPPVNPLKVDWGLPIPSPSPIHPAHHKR
Sequence (P08514 891-1039 partner): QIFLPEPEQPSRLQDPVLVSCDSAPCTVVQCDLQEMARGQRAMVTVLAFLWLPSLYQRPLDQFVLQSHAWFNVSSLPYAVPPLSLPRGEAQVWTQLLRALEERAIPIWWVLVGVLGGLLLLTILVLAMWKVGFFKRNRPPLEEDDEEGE
Sequence (P05106 27-788): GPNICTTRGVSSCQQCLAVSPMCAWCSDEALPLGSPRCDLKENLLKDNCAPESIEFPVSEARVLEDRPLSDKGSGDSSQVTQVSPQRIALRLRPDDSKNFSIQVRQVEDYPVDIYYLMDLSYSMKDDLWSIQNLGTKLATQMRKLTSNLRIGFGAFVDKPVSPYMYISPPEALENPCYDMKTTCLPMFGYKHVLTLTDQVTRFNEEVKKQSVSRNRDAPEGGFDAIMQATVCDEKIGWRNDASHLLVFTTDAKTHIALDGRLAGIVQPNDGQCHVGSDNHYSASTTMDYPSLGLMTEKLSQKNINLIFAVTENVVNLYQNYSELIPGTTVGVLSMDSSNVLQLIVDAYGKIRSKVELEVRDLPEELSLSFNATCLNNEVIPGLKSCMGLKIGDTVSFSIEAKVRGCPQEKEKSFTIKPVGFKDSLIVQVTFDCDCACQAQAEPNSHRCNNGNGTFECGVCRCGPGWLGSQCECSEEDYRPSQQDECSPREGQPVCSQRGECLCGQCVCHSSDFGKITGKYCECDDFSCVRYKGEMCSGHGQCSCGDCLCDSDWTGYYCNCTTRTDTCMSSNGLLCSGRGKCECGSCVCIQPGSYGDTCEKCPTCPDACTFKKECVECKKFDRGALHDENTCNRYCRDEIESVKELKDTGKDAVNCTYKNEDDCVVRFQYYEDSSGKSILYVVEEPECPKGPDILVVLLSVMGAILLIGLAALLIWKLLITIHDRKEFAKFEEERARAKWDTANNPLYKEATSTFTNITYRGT
measurement-description: Affinity assay: displacement of tritiated reference compound from immobilized purified GPIIb/IIIa
Format: binding
measurement-context: 19F compounds vs 60 nM 3H-labeled reference compound, 1 hour at room temperature; read-out: IC50 human
Scale explanation: pIC50 corresponds to minus log10 of a concentration expressed in moles per litre.

## Task What value of pIC50 has been reported for the following compound? N#Cc1ccc(-c2cncc([C@H](CC(=O)O)NC(=O)[C@@H]3CCCN(C(=O)CCC4CCNCC4)C3)c2)cc1F
## Result 7.82

###

assay-target: human GPIIb/IIIa receptor (Homo sapiens (Human), UniProt P05106+P08514)
measurement-description: Affinity assay: displacement of tritiated reference compound from immobilized purified GPIIb/IIIa
Assay type: binding
measurement-context: values repeated beside the 18F-compound; read-out: IC50 human (corresponding 19F-compound, Table 2)
Procedure: Affinity assay: In the first step human GPIIb/IIIa purified from human platelets was immobilized on a 96-well solid plate. After 48 hours the plates were washed and the unspecific binding sites were blocked with Roti®-Block. 2. […] The fraction of tritiated compound (^3H), which is not displaced by inhibitor, was measured in a microplate scintillation counter. […] The maximum value of tritiated reference compound was determined without addition of inhibitor (n=8). […]
Reported pIC50 is given for each of the following molecules.
Scale explanation: pIC50 corresponds to minus log10 of a concentration expressed in moles per litre.

Examples with answers:
>  <molecule>
O=C(O)C[C@H](NC(=O)[C@@H]1CCCN(C(=O)CCC2CCNCC2)C1)c1cncc(CCc2ccc(OCCF)cc2)c1 [Example 18]

>  <test-readout>
pIC50

>  <measured>
8.52

$$$$
>  <molecule>
N#Cc1cc(-c2cncc([C@H](CC(=O)O)NC(=O)[C@@H]3CCCN(C(=O)CCC4CCNCC4)C3)c2)ccc1F [Example 9]

>  <test-readout>
pIC50

>  <measured>
7.68

$$$$
>  <molecule>
O=C(O)C[C@H](NC(=O)[C@@H]1CCCN(C(=O)CCC2CCNCC2)C1)c1cncc(CCc2cccc(OCCF)c2)c1 [Example 19]

>  <test-readout>
pIC50

>  <measured>
8.52

$$$$

## Task What value of pIC50 has been reported for the following molecule? O=C(O)C[C@H](NC(=O)[C@@H]1CCCN(C(=O)CCC2CCNCC2)C1)c1cccc(OCCF)c1 [Example 1]
## Result 7.00

## Task What value of pIC50 has been reported for the following molecule? O=C(O)C[C@H](NC(=O)[C@@H]1CCCN(C(=O)CCC2CCNCC2)C1)c1cncc(OCCF)c1 [Example 3]
## Result 7.70

## Task What value of pIC50 has been reported for the following molecule? O=C(O)C[C@H](NC(=O)[C@@H]1CCCN(C(=O)CCC2CCNCC2)C1)c1ccc(OCCF)cc1 [Example 2]
## Result 7.54

## Task What value of pIC50 has been reported for the following molecule? O=C(O)C[C@H](NC(=O)[C@@H]1CCCN(C(=O)CCC2CCNCC2)C1)c1cncc(-c2ccc(OCCF)cc2)c1 [Example 7]
## Result 7.96
